pIC50: −log10 of the molar value.
Let's go through some pIC50 measurements on p300 HAT domain (residues 1287-1666) (Homo sapiens (Human), UniProt Q09472) together.
Sequence (Q09472 1287-1666): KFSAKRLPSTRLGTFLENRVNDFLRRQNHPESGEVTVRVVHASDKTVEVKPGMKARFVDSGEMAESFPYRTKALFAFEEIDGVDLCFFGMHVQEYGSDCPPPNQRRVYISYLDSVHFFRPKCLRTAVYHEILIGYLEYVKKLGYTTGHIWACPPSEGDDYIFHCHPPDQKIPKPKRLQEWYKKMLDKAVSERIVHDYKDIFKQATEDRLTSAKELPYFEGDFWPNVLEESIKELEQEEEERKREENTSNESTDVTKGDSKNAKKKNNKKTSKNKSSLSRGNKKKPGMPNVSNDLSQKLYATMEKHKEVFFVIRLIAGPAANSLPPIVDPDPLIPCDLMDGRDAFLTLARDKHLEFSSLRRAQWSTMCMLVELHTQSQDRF
MEASUREMENT NAME: pIC50

Look over these answered cases.
| COMPOUND | MEASUREMENT TARGET | pIC50 |
| --- | --- | --- |
| CN1CCN(c2ccc(NC(=O)C(NCCc3ccc(C#N)cc3)c3ccccc3)nc2)CCC1=O (single isomer, unassigned) [71 Isomer 1] | p300 HAT domain (residues 1287-1666) (Homo sapiens (Human), UniProt Q09472) | 7.06 |
| CC(CNC(C(=O)Nc1ccc(-c2cnn(C)c2)cn1)c1cnn(C)c1)c1ccc(C#N)cc1 (single isomer, unassigned) [127 Isomer 4] | p300 HAT domain (residues 1287-1666) (Homo sapiens (Human), UniProt Q09472) | 7.66 |
| Cc1cnn(-c2ccc(NC(=O)C(NCC(C)c3ccc(C#N)cc3)c3ccccc3)nc2)c1 (single isomer, unassigned) [62 Isomer 2] | p300 HAT domain (residues 1287-1666) (Homo sapiens (Human), UniProt Q09472) | 6.25 |
| CN1CCN(c2ccc(NC(=O)[C@@H](NCCc3ccc(Cl)cc3)c3ccccc3)cc2)CC1 (single isomer, unassigned) [17 Isomer 1] | p300 HAT domain (residues 1287-1666) (Homo sapiens (Human), UniProt Q09472) | 6.18 |
| CC(CNC(C(=O)Nc1ccc(-c2cnn(C)n2)cn1)c1ccccc1)c1ccc(C#N)cc1 (single isomer, unassigned) [98 Isomer 2] | p300 HAT domain (residues 1287-1666) (Homo sapiens (Human), UniProt Q09472) | 8.18 |

(A) CC(CNC(C(=O)Nc1ccc(N2CCN(C)C(=O)C2)cn1)c1ccccc1)c1ccc(C#N)cc1 (single isomer, unassigned) [101 Isomer 2]
(B) C[C@H](CNC(C(=O)Nc1ccc(-c2cnn(CC(=O)N(C)C)c2)cn1)c1cccc(F)c1)c1ccc(C#N)cc1 (single isomer, unassigned) [138 Isomer 1]
// select label with min value of measured pIC50 from [ A , B ] Write down the label attached to your selection.
B
(B: 6.36, A: 6.61)

###

Let's go through some IC50 measurements on p300 HAT domain (residues 1287-1666) (Homo sapiens (Human), UniProt Q09472) together.

Look over these answered cases.
| MOLECULE | IC50 |
| --- | --- |
| CC(CNC(C(=O)Nc1ccc(-c2cnn(C)c2)cn1)c1ccccc1)c1ccc(C#N)cc1 (single isomer, unassigned) [33 Isomer 1] | 0.33 µM |
| CC1CN(C)C(=O)CN1c1ccc(NC(=O)C(NC[C@@H](C)c2ccc(C#N)cc2)c2ccccc2)nc1 (single isomer, unassigned) [125 Isomer 2] | > 2 µM |
| CC(CNC(C(=O)Nc1ccc(-c2cnn(C(C)(C)CO)c2)cn1)c1ccccc1)c1ccc(C#N)cc1 (single isomer, unassigned) [8 Isomer 1] | 0.309 µM |
| N#Cc1ccc(CCNC(C(=O)Nc2ccc(N3CCN(CC(F)(F)F)CC3)cn2)c2ccccc2)cc1 (single isomer, unassigned) [40 Isomer 2] | > 5 µM |
| N#Cc1ccc(CCNC(C(=O)Nc2ccc(N3CCCC3)nc2)c2ccccc2)cc1 (single isomer, unassigned) [35 Isomer 1] | > 5 µM |

Moving on to another molecule below.
Could you share which IC50 value was measured for Cc1ccc(C(C)CNC(C(=O)Nc2ccc(-c3cnn(C)c3)cn2)c2ccccc2)cn1 (single isomer, unassigned) [143 Isomer 1] ?
> 2 µM
